Data origin, for the record: ChEMBL document CHEMBL1155262

Catalogue of molecules with associated Activity
test system: Mus musculus; assay: Neurotoxicity against ip dosed mouse CF1 albino assessed as minimal motor impairment after 0.5 hrs by rotord test; format: toxicity, organism-based; details: in vivo
assay readout: Activity (mg/kg)

>  <structure smiles string>
CCCOc1c(C(=O)N/N=C/c2ccc([N+](=O)[O-])cc2)sc(C(=O)N/N=C/c2ccc([N+](=O)[O-])cc2)c1OCCC

>  <target entity>
Mus musculus

>  <assay readout>
Activity

>  <units text>
mg/kg

>  <observed value>
100

$$$$
>  <structure smiles string>
CCCOc1c(C(=O)NN)sc(C(=O)NN)c1OCCC

>  <target entity>
Mus musculus

>  <assay readout>
Activity

>  <units text>
mg/kg

>  <observed value>
100

$$$$
>  <structure smiles string>
CCCOc1c(C(=O)N/N=C(/C)c2cc(Cl)sc2Cl)sc(C(=O)N/N=C(/C)c2cc(Cl)sc2Cl)c1OCCC

>  <target entity>
Mus musculus

>  <assay readout>
Activity

>  <units text>
mg/kg

>  <observed value>
300

$$$$
